All figures here come from PubChem BioAssay (NCATS).

experiment: Quantitative High-Throughput drug screen in 47 multiple myeloma cell lines against the NCATS MIPE library collection: AMO1_DSMZ cell viability assay (AID 1918927; further: nearly all actives have a fitted effect of over 30% in size); conditions: AMO1 myeloma cells viability, CellTiter-Glo ATP luminescence, 48 h; series mostly up to 45.8 µM
Inconclusive results are not listed. Active and inactive are the calls of the source. The call rests on the fitted dose curve; in most records, active means well fitted cell-killing curve with a large enough effect; inconclusive means small, poorly fitted or top-dose-only effect, or effect the other way; inactive means no such curve, though single readings can be large or run the other way.
Would you mind answering with one of these outcomes? active, inactive

O=C(N[C@H](CO)[C@H](O)c1ccc([N+](=O)[O-])cc1)C(Cl)Cl : inactive
CCCCOc1ccc(CC(=O)NO)cc1 : active
Nc1ccc(S(=O)(=O)Nc2ccccn2)cc1 : inactive

Query string: Recorded test outcome, item "O=C(O)c1cccnc1"
Result string: inactive

Query string: Recorded test outcome, item "Nc1nc(F)nc2c1ncn2[C@@H]1O[C@H](CO)[C@@H](O)[C@@H]1O"
Result string: active

Query string: Recorded test outcome, item "CCN(CC)CCn1c(=O)c(Cc2ccc(OC)cc2)nc2ccccc21"
Result string: inactive

Query string: Recorded test outcome, item "C[C@@H]1C[C@H]2[C@@H]3CCC4=CC(=O)C=C[C@]4(C)[C@@]3(Cl)[C@@H](O)C[C@]2(C)[C@@]1(OC(=O)c1ccco1)C(=O)CCl"
Result string: active

Query string: Recorded test outcome, item "CCN[C@H]1C[C@H](C)S(=O)(=O)c2sc(S(N)(=O)=O)cc21"
Result string: inactive

Query string: Recorded test outcome, item "NNC(=O)c1ccncc1"
Result string: inactive
